src = PubChem BioAssay

Would you kindly list z-score for each of these molecules?
test: E. coli acrAB mutant growth effects, primary screen, E. coli filamentation inducers, strain DRC39, OD650, 24 h (AID 1178); details: higher = more signal, called active from +8 up or from −8 down;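 further: growth measured as culture turbidity by optical density at 650 nm; test concentration not given here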
Give bare numbers.

Below: 5 molecules and their reported z-score.
{"columns": ["Molecule", "Quantitative Result"],
 "data": [
  ["C[C@]1(C(=O)NC2CC2)c2ccccc2C(=O)N(Cc2ccccc2)[C@H]1c1ccc(CO)cc1", 0.809],
  ["[N-]=[N+]=NCc1ccccc1[C@@H]1OC(c2ccc(OCCCO)cc2)=N[C@]1(CCS(=O)(=O)c1ccccc1)C(=O)NCC(O)CO (some centres undefined)", 0.488],
  ["C=C(/C(=C/C[C@H](OC(C)=O)c1ccccc1OCCO)c1cc(C(=O)OC)ccc1OC)C(C)C", -0.0536],
  ["O=C1C2C=CC(C(O)c3ccc(Br)cc3)N(Nc3ccccc3F)C2C(=O)N1c1ccccc1 (centres undefined)", 0.774],
  ["C=CCN1C(=O)[C@@]2(O[C@@H](CCn3cc([C@H](O)c4ccccc4)nn3)[C@H]([Si](C)(C)c3ccc(OC)cc3)[C@H]2C)c2cc(N3CCC3=O)ccc21", 0.397]
]}

For each of the items listed, what is its z-score?
1. C=CCC(OC(C)=O)[C@@H]1[C@@H](N(Cc2cc3ccccc3o2)C(=O)c2ccc(-c3ccccc3)cc2)c2cc(OCCCO)ccc2N1C(=O)c1ccc2ccccc2c1 (some centres undefined)
2. CCOC(=O)C[C@H]1[C@H](OC(=O)Cc2ccc3c(c2)OCO3)[C@@H](NC(=O)Cc2ccc(OC)cc2)c2cc(OCCCO)ccc2N1C(=O)c1ccc2ccccc2n1
3. C=C(/C(=C/C[C@@H](OC(C)=O)c1cccc(OCCO)c1)c1cc(C(=O)OC)ccc1OC)C(C)C
4. COCCCNC(=O)[C@@]1(Cc2ccccc2N=[N+]=[N-])COC(c2ccc(OCCCO)cc2)=N1

1: -0.413; 2: 2.3; 3: 0.233; 4: 0.349
